- assayExplanation: qHTS of pediatric cancer cell lines to identify multiple opportunities for drug repurposing: Primary screen for SJ-GBM2 cells (AID 1347091)
- assayContext: SJ-GBM2 viability, CellTiter-Glo luminescence, 48 h; series mostly up to 46 µM
Results filed as inconclusive are left out. The source made the active and inactive calls. Calls follow the shape of the dose curve; as a rule, active = well fitted cell-killing curve with a large enough effect; inconclusive = small, poorly fitted or top-dose-only effect; inactive = no such curve, though single readings can be large or run the other way.
Field 'call' accepts True = active, False = inactive

{"columns": ["molecule", "label"],
 "data": [
  ["COC(=O)[C@H](CCCN=C(N)N)NS(=O)(=O)c1ccc(C)cc1", "False"],
  ["Cc1[nH]c(C=C2C(=O)Nc3ccccc32)c(C)c1CCC(=O)O", "True"],
  ["CC(=O)OCC(=O)[C@@]12N=C(C)O[C@H]1C[C@H]1[C@@H]3CCC4=CC(=O)C=C[C@]4(C)[C@@H]3[C@@H](O)C[C@@]12C", "False"],
  ["CC(C)[C@H](CO)Nc1nc(Nc2cccc(Cl)c2)c2ncn(C(C)C)c2n1", "True"],
  ["C=Cc1c(C)c2cc3nc(cc4[nH]c(cc5nc(cc1[nH]2)C(C)=C5CCC(=O)O)c(CCC(=O)OC)c4C)[C@@]1(C)C3=CC=C(C(=O)OC)[C@H]1C(=O)OC", "True"],
  ["c1cc(CN2CCCNCCNCCCNCC2)ccc1CN1CCCNCCNCCCNCC1", "False"],
  ["CCn1c(=O)c2c(nc(C=Cc3ccc(OC)c(OC)c3)n2C)n(CC)c1=O", "False"],
  ["CC(=O)OCC(=O)[C@@]1(O)CC[C@H]2[C@@H]3CCC4=CC(=O)CC[C@]4(C)[C@@H]3C(=O)C[C@@]21C", "False"]
]}

Hello, I am checking results. What call was entered for CC(=O)N[C@H]1[C@@H]([C@H](O)[C@H](O)CO)OC(C(=O)O)=C[C@@H]1N=C(N)N ? False

Hello, I am checking results. What call was entered for Cc1ccc([N+](=O)[O-])cc1S(=O)(=O)N(C)N=Cc1cnc2ccc(Br)cn12 ? True

Hello, I am checking results. What call was entered for CCc1c(O)cc(O)c(C(=O)c2ccc(OCCN3CCOCC3)c(OC)c2)c1CC(=O)N(CCOC)CCOC ? True

Hello, I am checking results. What call was entered for CN(N=O)C(=O)N[C@H]1C(O)OC(CO)[C@@H](O)[C@H]1O (some centres not stated) ? False

Hello, I am checking results. What call was entered for COc1ccnc2[nH]cc(C(=O)C(=O)N3CCN(C(=O)c4ccccc4)C[C@@H]3C)c12 ? False

###

- assayExplanation: Quantitative High-Throughput drug screen in 47 multiple myeloma cell lines against the NCATS MIPE library collection: MMM1_PLB cell viability assay (AID 1918976); also: potency is read from the fitted curve at half-maximal effect; nearly all actives have a fitted effect of over 35% in size
- assayContext: MMM1 myeloma cells viability, CellTiter-Glo, 48 h; series mostly up to 45.8 µM
Results filed as inconclusive are left out. Calls of active or inactive are those of the source. Calls come from the whole dose curve; as a rule, active = well fitted cell-killing curve with a large enough effect; inconclusive = small, poorly fitted or top-dose-only effect, or effect the other way; inactive = no such curve, though single readings can be large or run the other way.
What Potency was measured for each of the following?

Worked cases, answers included:
{"columns": ["compound", "Potency"],
 "data": [
  ["CNC(=O)c1ccc(Nc2cc(Nc3ccccc3S(=O)(=O)C(C)C)c3cc[nH]c3n2)nc1", "11.8 µM (active)"],
  ["COc1ccc(C=Cc2cc(OC)c(OC)c(OC)c2)cc1NC(=O)[C@H](N)CO", "0.0187 µM (active)"],
  ["COc1cccc2c1C(=O)c1c(O)c3c(c(O)c1C2=O)C[C@@](O)(C(=O)CO)C[C@@H]3O[C@H]1C[C@H](N)[C@H](OC2CCCCO2)[C@H](C)O1 (some centres undefined)", "1.18 µM (active)"],
  ["C[C@H](NC(=O)C(C#N)=Cc1cccc(Br)n1)c1ccccc1", "7.43 µM (active)"],
  ["NC(=O)Nc1cc(-c2ccc(CN3CCOCC3)cc2)sc1C(N)=O", "6.62 µM (active)"],
  ["Cn1cc(C2=C(c3c4n(c5ccccc35)CCC(CN)C4)C(=O)NC2=O)c2ccccc21 (centres undefined)", "20.9 µM (active)"],
  ["Nc1ccn(C2CO[C@H](CO)O2)c(=O)n1 (some centres undefined)", "4.69 µM (active)"],
  ["CC(C)c1cc(C(C)C)c(CC(=O)NS(=O)(=O)Oc2c(C(C)C)cccc2C(C)C)c(C(C)C)c1", "33.2 µM (active)"]
]}

Now, please, on to the next compound.
Name the recorded Potency for COC(=O)C1C2CC3c4[nH]c5cc(OC)ccc5c4CCN3CC2CC(OC(=O)c2cc(OC)c(OC)c(OC)c2)C1OC (centres undefined) . 20.9 µM (active)
